- System: F1 hybrid maize plants
- Measurement Description: trait efficacy field trial, 2,4-D pressure screening, F1 hybrid
- Type: in vivo
- Conditions Used: CTP A; crop injury percentage; 4 lb ae/acre at VE-V2, V4, V8
// reported 4X 2,4-D CIPV8 per item
Measure: 4X 2,4-D CIPV8

• MON-HT9: engineered oxygenase protein, amino acid sequence SEQ ID NO:40 (protein) MHAALTPLTNKYRFIDVQPLTGVLGAEITGVDLREPLDDSTWNEILDAFHTYQVIYFPAQQITNEQHISFSRRFGPVDPVPLLKSIEGYPEVQMIRREANESGRILGDDWHTDSTFLDAPPAAVVMRAIEVPEYGGDTGFLSMYSAWDTLSDTMKATIEGLNVVHSATRVFGSLYQAQNWRFSNTSVKVMDVDAGDRETVHPLVVSHPVTGRRALYCNQVYCQRIEGMTDAESKCLLQFLYEHATKFDFTCRVRWKKDQVLVWDNLCTMHRAVPDYAGKFRYLTRTTVAGDRPAR = 55
• MON-HT8: engineered oxygenase protein, amino acid sequence SEQ ID NO:37 (protein) MHAALTPLTNKYRFIDVQPLTGVLGAEITGVDLREPLDDSTWNEILDAFHTYQVIYFPGQAITNEQHIAFSRRFGPVDPVPILKSIEGYPEVQMIRREANESGRVIGDDWHTDSTFLDAPPAAVVMRAIEVPEYGGDTGFLSMYSAWETLSPTMQATIEGLNVVHSATKVFGSLYQATNWRFSNTSVKVMDVDAGDRETVHPLVVTHPVTGRRALYCNQVYCQKIQGMTDAESKSLLQFLYEHATKFDFTCRVRWKKDQVLVWDNLCTMHRSVPDYGNAFRYLTRTTVAGDKPSR = 5
• MON-HT2: engineered oxygenase protein, amino acid sequence SEQ ID NO:18 (protein) MHAALTPLTNKYRFIDVQPLTGVLGAEITGVDLREPLDDSTWNEILDAFHTYQVIYFPGQAITNEQHIAFSRRFGPVDPVPLLKSIEGYPEVQMIRREANESSRVIGDDWHSDSTFLDAPPAAVVMRAIEVPEYGGDTGFLSMYSAWETLSPTMQATIEGLNVVHSATKVFGSLYQATNWRFSNTSVKVMDVDAGDRETVHPLVVTHPVTGRRALYCNQVYCQKIQGMTDAESKSLLQFLYEHATKFDFTCRVRWKKDQVLVWDNLCTMHRAAPDYAGKFRYLTRTTVAGDKPSR = 5
• MON-HT1: engineered oxygenase protein, amino acid sequence SEQ ID NO:14 (protein) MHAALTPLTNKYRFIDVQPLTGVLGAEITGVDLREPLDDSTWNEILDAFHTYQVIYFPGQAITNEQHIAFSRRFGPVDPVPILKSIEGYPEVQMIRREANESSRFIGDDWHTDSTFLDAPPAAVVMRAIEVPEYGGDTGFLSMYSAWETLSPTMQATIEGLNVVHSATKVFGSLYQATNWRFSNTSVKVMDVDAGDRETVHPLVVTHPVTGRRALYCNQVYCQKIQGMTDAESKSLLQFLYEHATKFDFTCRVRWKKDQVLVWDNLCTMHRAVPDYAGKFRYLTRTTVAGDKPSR = 5
• MON-HT10: engineered oxygenase protein, amino acid sequence SEQ ID NO:43 (protein) MHAALTPLTNKYRFIDVQPLCGVLGAEITGVDLREPLDDSTWNEILDAFHTYQVIYFPGQAITNEQHIAFSRRFGPVDPVPLLKSIEGYPEVQMIRREANESGRILGDDWHTDSTFLDAPPAAVVMRAIEVPEYGGDTGFLSMYSAWDTLSDTMKATIEGLNVVHSATRVFGSLYQAQNWRFSNTSVKVMDVDAGDRETVHPLVVSHPVTGRRALYCNQVYCQRIEGMTDAESKCLLQFLYEHATKFDFTCRVRWKKDQVLVWDNLCTMHLAVPDYDGKFRYLTRTTVAGDKPSR = 70
